The entries below are paired with their reported GI50.
System: KM12
Assay: NCI tumour cell line growth inhibition, 48 h
Active and inactive are the calls of the source. Rule as the data show it: active = GI50 up to about 1.1 µM and inactive = higher.

Example cases with answers are listed next.
compound | GI50
Oc1ccc2ccccc2c1CN(Cc1c(O)ccc2ccccc12)C1CCCCC1 | 28.2 µM (inactive)
Cc1nc(-c2ccccc2)cn2c1nc1ccccc12 | 20.8 µM (inactive)
COc1cc(C2SCC(=O)N2c2ccc(Cl)cc2)cc(OC)c1OC (centres undefined) | 3.38 µM (inactive)
C/C(=N\NS(=O)(=O)c1ccc(C)cc1)C(CN1CCCCC1)C(c1ccccc1)c1c(O)c2ccccc2oc1=O (centres undefined) | > 100 µM (inactive)
COC(=O)CSc1nc2[nH]c(SC)c(C(N)=O)c2c(=O)n1-c1ccccc1 | > 10 µM (inactive)
CC(C)OP(=O)(OC(C)C)c1ncn(-c2ccc([N+](=O)[O-])cc2)n1 | > 100 µM (inactive)
CC(C)(C)c1cc(OCc2nnc3sc(-c4ccc(Cl)cc4)nn23)c(Cl)cc1OCc1nnc2sc(-c3ccc(Cl)cc3)nn12 | 2.47 µM (inactive)
Cc1cc(C)nc(NS(=O)(=O)c2ccc(Nc3c4ccccc4nc4c(C(=O)Nc5ccc(S(=O)(=O)Nc6cc(C)on6)cc5)ccc(Cl)c34)cc2)n1 | 17.3 µM (inactive)

Kindly review the next compound as well.
### Prompt Fill in GI50 for record O=C1Oc2cc3c(c4cccc1c24)OCN(c1ccc(Cl)cc1)C3
### Response > 44.5 µM (inactive)
